Biological target: T1, OCT2 DBD (POU domain) (Homo sapiens, UniProt P09086 195-357)
T1 sequence: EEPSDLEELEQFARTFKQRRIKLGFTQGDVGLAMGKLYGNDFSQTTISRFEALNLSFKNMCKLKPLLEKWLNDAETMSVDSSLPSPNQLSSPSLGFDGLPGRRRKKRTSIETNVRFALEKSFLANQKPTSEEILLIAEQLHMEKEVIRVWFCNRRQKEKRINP
Experiment: fluorescence anisotropy; 0.175 M Na+, 1 U poly[d(I-C)]; FP: 5 nM probe, 10 mM Bis-Tris pH 6.5, 0.01% BSA, 0.15-0.35 M NaCl, 25 C overnight, Hill fit with nH = 2 (macroscopic KD of dimer); EMSA: 10 nM DNA, PBS, 25 C o
Conditions: protein: recombinant; tags: N-terminal His6 removed by thrombin; chain copies: 2; label: 5'-HEX; blunt; self-complementary, 2 copies of the strand
readout name: Kd

> print(dat)
                                     binder  value.observed
1  MORE 22-bp, HEX-labelled (dsDNA) DNA 1: TCCTCATGCATATGCATGAGGA DNA 2: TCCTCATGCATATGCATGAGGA           11 nM

The measurements presented in this section are drawn from paper PMC11873960.
